The measurements presented in this section are drawn from patent US10376555B2.

molecular target: UniProt P47211; experiment: SRE-Luc receptor activation assay, hGalR1; assay type: cell-based; conditions: Relative to hGAL Emax
Sequence (P47211 whole entry): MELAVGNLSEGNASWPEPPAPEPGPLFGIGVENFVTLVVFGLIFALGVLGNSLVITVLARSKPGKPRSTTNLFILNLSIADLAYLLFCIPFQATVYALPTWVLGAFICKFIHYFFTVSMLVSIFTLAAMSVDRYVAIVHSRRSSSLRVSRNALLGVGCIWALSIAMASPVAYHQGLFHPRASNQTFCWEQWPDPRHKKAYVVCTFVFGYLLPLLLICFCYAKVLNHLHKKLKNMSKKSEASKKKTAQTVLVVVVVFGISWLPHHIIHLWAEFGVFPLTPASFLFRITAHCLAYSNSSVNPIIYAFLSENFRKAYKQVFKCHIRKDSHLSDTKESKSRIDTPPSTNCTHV
Positions of bridges follow the written chain, without caps; N, C: chain ends. Residues, ends and D or L forms follow the SMILES beside them.
outcome-measure: hGalR1 Emax
Just the number.

CC(=O)N[C@H]1CSSC[C@@H](C(=O)N[C@@H](Cc2c[nH]cn2)C(=O)N[C@@H](C)C(=O)N[C@H](C(N)=O)C(C)C)NC(=O)CNC(=O)[C@H](CC(C)C)NC(=O)[C@H](CC(C)C)NC(=O)[C@H](Cc2ccc(O)cc2)NC(=O)CNC(=O)[C@H](C)NC(=O)[C@H](CO)NC(=O)[C@H](CC(N)=O)NC(=O)[C@H](CC(C)C)NC(=O)[C@H]([C@@H](C)O)NC(=O)[C@H](Cc2c[nH]c3ccccc23)NC1=O [LH201 (Ac)] (Ac-CWTLNSAGYLLGCHAV-NH2; disulfide 1-13)	0.22

Request: # returns recorded hGalR1 Emax (system: UniProt P47211) for CC(C)C[C@@H]1NC(=O)[C@H](CC(C)C)NC(=O)[C@H](Cc2ccc(O)cc2)NC(=O)CNC(=O)[C@H](C)NC(=O)[C@H](CO)NC(=O)[C@H](CC(N)=O)NC(=O)[C@H](CC(C)C)NC(=O)[C@H]([C@@H](C)O)NC(=O)[C@H](Cc2c[nH]c3ccccc23)NC(=O)[C@@H](N)CSSC[C@@H](C(=O)N[C@@H](Cc2c[nH]cn2)C(=O)N[C@@H](C)C(=O)N[C@H](C(N)=O)C(C)C)NC(=O)CNC1=O [LH201] (H-CWTLNSAGYLLGCHAV-NH2; disulfide 1-13)
Result: 0.35

* * *

test: In vitro serum stability assay (RP-HPLC); assay type: in vitro ADME, rat; details: rat, serum, half-life time in serum
Positions of bridges follow the written chain, without caps; N, C: chain ends. Residues, ends and D or L forms follow the SMILES beside them.
outcome-measure: half-life at 100 μg/mL

Request: GET /values?readout=half-life at 100 μg/mL&item= CSCC[C@@H]1NC(=O)[C@H](C)NC(=O)[C@H](CCC(N)=O)NC(=O)[C@@H]2CCCN2C(=O)[C@H]([C@@H](C)O)NC(=O)[C@H](Cc2c[nH]c3ccccc23)NC(=O)[C@@H](NC(C)=O)CSSC[C@@H](C(=O)N[C@@H](CCC(N)=O)C(N)=O)NC(=O)CNC(=O)[C@H](CCCCN)NC(=O)[C@H](CC(C)C)NC(=O)[C@H](Cc2ccc(O)cc2)NC(=O)[C@H](CC(C)C)NC1=O [LH101 (Ac)] (Ac-CWTPQAMLYLKGCQ-NH2; disulfide 1-13)
Result: > 24 h

* * *

target: hGalR3 (Homo sapiens, UniProt O60755); construct: host or cells: HEK293; assay: SRE-Luc receptor activation assay, hGalR3; assay type: cell-based; settings: Relative to hSPX Emax
Sequence (O60755 whole entry): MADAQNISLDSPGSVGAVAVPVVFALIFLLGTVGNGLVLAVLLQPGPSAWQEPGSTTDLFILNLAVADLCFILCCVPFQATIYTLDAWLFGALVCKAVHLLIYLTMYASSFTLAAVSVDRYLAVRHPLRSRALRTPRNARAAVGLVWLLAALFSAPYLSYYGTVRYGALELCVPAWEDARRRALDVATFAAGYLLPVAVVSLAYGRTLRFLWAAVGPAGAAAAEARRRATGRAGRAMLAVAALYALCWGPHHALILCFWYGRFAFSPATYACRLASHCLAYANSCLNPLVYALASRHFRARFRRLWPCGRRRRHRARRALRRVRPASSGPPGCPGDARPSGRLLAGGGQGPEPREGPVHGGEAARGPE
Quick reference: hGalR3 Emax of the listed items.
Answer with the value's number alone.

CC(C)C[C@H](NC(=O)[C@H](CC(C)C)NC(=O)[C@H](Cc1ccc(O)cc1)NC(=O)CNC(=O)[C@H](C)NC(=O)[C@H](CO)NC(=O)[C@H](CC(N)=O)NC(=O)[C@H](CC(C)C)NC(=O)[C@@H](NC(=O)[C@H](Cc1c[nH]c2ccccc12)NC(=O)CN)[C@@H](C)O)C(=O)NCC(=O)N1CCC[C@H]1C(=O)N[C@@H](Cc1c[nH]cn1)C(=O)N[C@@H](C)C(=O)N[C@H](C(N)=O)C(C)C [hGAL (1-16), reference compound]	0.45

Next:
Request: Notebook entry, hGalR3 (Homo sapiens, UniProt O60755) assay: hGalR3 Emax of CSCC[C@H](NC(=O)[C@H](C)NC(=O)[C@H](CCC(N)=O)NC(=O)[C@@H]1CCCN1C(=O)[C@@H](NC(=O)[C@H](Cc1c[nH]c2ccccc12)NC(=O)[C@@H](N)CC(N)=O)[C@@H](C)O)C(=O)N[C@@H](CC(C)C)C(=O)N[C@@H](Cc1ccc(O)cc1)C(=O)N[C@@H](CC(C)C)C(=O)N[C@@H](CCCCN)C(=O)NCC(=O)N[C@@H](C)C(=O)N[C@@H](CCC(N)=O)C(N)=O [hSPX, reference compound] = ?
Result: 1.00

* * *

Target: hGalR2 (Homo sapiens, UniProt O43603)
Construct: host or cells: HEK293
Sequence (O43603 1-387): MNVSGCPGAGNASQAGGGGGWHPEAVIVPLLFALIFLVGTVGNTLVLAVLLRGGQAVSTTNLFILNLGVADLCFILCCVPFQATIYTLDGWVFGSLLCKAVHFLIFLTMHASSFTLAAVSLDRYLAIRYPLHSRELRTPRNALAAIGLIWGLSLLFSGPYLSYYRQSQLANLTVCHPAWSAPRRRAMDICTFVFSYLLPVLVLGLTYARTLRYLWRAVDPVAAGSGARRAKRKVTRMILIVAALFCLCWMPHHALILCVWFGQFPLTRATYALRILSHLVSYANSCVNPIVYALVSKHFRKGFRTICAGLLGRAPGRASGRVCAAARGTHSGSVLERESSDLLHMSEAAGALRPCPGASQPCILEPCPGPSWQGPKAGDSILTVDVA
Test: SRE-Luc receptor activation assay, hGalR2
Format: cell-based
Details: Relative to hSPX Emax
Positions of bridges follow the written chain, without caps; N, C: chain ends. Residues, ends and D or L forms follow the SMILES beside them.
outcome-measure: hGalR2 Emax
Keep it simple and answer with nothing but the number.

CC(C)C[C@@H]1NC(=O)[C@H](CC(C)C)NC(=O)[C@H](Cc2ccc(O)cc2)NC(=O)CNC(=O)[C@H](C)NC(=O)[C@H](CO)NC(=O)[C@H](CC(N)=O)NC(=O)[C@H](CC(C)C)NC(=O)[C@H]([C@@H](C)O)NC(=O)[C@H](Cc2c[nH]c3ccccc23)NC(=O)[C@@H](N)CSSC[C@@H](C(=O)N[C@@H](Cc2c[nH]cn2)C(=O)N[C@@H](C)C(=O)N[C@H](C(N)=O)C(C)C)NC(=O)CNC1=O [LH201] (H-CWTLNSAGYLLGCHAV-NH2; disulfide 1-13)	1.00

Request: Field request: hGalR2 Emax | item: CSCC[C@H](NC(=O)[C@H](C)NC(=O)[C@H](CCC(N)=O)NC(=O)[C@@H]1CCCN1C(=O)[C@@H](NC(=O)[C@H](Cc1c[nH]c2ccccc12)NC(=O)[C@@H](N)CS)[C@@H](C)O)C(=O)N[C@@H](CC(C)C)C(=O)N[C@@H](Cc1ccc(O)cc1)C(=O)N[C@@H](CC(C)C)C(=O)N[C@@H](CCCCN)C(=O)NCC(=O)N[C@@H](C)C(=O)N[C@@H](CCC(N)=O)C(N)=O [hSPX (C1)] (H-CWTPQAMLYLKGAQ-NH2; N-terminus assumed)
Result: 1.05

Request: So what does the record say about hGalR2 Emax for CC(C)C[C@H](NC(=O)[C@H](CC(C)C)NC(=O)[C@H](Cc1ccc(O)cc1)NC(=O)CNC(=O)[C@H](C)NC(=O)[C@H](CO)NC(=O)[C@H](CC(N)=O)NC(=O)[C@H](CC(C)C)NC(=O)[C@@H](NC(=O)[C@H](Cc1c[nH]c2ccccc12)NC(=O)CN)[C@@H](C)O)C(=O)NCC(=O)N1CCC[C@H]1C(=O)N[C@@H](Cc1c[nH]cn1)C(=O)N[C@@H](C)C(=O)N[C@H](C(N)=O)C(C)C [hGAL (1-16), reference compound] ?
Result: 1.02

Request: For CSCC[C@H](NC(=O)[C@H](C)NC(=O)[C@H](CCC(N)=O)NC(=O)[C@@H]1CCCN1C(=O)[C@@H](NC(=O)[C@H](Cc1c[nH]c2ccccc12)NC(=O)[C@@H](N)CC(N)=O)[C@@H](C)O)C(=O)N[C@@H](CC(C)C)C(=O)N[C@@H](Cc1ccc(O)cc1)C(=O)N[C@@H](CC(C)C)C(=O)N[C@@H](CCCCN)C(=O)NCC(=O)N[C@@H](CS)C(=O)N[C@@H](CCC(N)=O)C(N)=O [hSPX (C13)] (H-NWTPQAMLYLKGCQ-NH2; N-terminus assumed) , what is its reported hGalR2 Emax?
Result: 0.87

Request: Request the reported hGalR2 Emax associated with CSCC[C@H](NC(=O)[C@H](C)NC(=O)[C@H](CCC(N)=O)NC(=O)[C@H](CS)NC(=O)[C@@H](NC(=O)[C@H](Cc1c[nH]c2ccccc12)NC(=O)[C@@H](N)CC(N)=O)[C@@H](C)O)C(=O)N[C@@H](CC(C)C)C(=O)N[C@@H](Cc1ccc(O)cc1)C(=O)N[C@@H](CC(C)C)C(=O)N[C@@H](CCCCN)C(=O)NCC(=O)N[C@@H](C)C(=O)N[C@@H](CCC(N)=O)C(N)=O [hSPX (C4)] (H-NWTCQAMLYLKGAQ-NH2; N-terminus assumed)
Result: 0.98
